Molecular target: HIV-1 protease (Human immunodeficiency virus type 1 group M subtype B)
Experiment: biochemical
Details: read-out: HIV-1 Protease % Inhib, dose 3.300 uM
Please go through the items and note down their inhibition at 3.3 µM.

Please report inhibition at 3.3 µM for every entry that follows.
1. O=c1oc2c(c(O)c1C(c1cccc(S(=O)(=O)Nc3ccccc3)c1)C1CC1)CCCCCC2 (stereo not drawn) [Example 400]
2. O=C(O)c1cccc(S(=O)(=O)Nc2cccc(C(c3c(O)c4c(oc3=O)CCCCCC4)C3CC3)c2)c1 (stereo not drawn) [Example 292]
3. O=c1oc2c(c(O)c1C(c1cccc(NS(=O)(=O)c3cc(Cl)cc(Cl)c3O)c1)C1CC1)CCCCCC2 (stereo not drawn) [Example 284]
4. O=c1oc2c(c(O)c1C(c1ccccc1)C1CC1)CCCCCC2C(O)C1CC1 (stereo not drawn) [Example 176]
5. O=c1oc2c(c(O)c1C(c1cccc(NS(=O)(=O)c3ccc(-c4ccon4)s3)c1)C1CC1)CCCCCC2 (stereo not drawn) [Example 347]

1: 94.7%; 2: 125%; 3: 107%; 4: 104%; 5: 100%

Please report inhibition at 3.3 µM for every entry that follows.
1. CCCOc1ccc2c(O)c(C(CC)c3ccccc3)c(=O)oc2c1 (stereo not drawn) [Example 169]
2. CCCc1ccc(S(=O)(=O)Nc2cccc(C(c3c(O)c4c(oc3=O)CCCCCC4)C3CC3)c2)cc1 (stereo not drawn) [Example 342]
3. O=c1oc2c(c(O)c1C(c1cccc(NS(=O)(=O)C=Cc3ccccc3)c1)C1CC1)CCCCCC2 (stereo not drawn) [Example 320]
4. O=c1oc2c(c(O)c1C(c1cccc(NS(=O)(=O)c3ccc4ccccc4c3)c1)C1CC1)CCCCCC2 (stereo not drawn) [Example 266]
5. O=C(CCn1ccc2ccccc21)Nc1cccc(C(c2c(O)c3c(oc2=O)CCCCCC3)C2CC2)c1 (stereo not drawn) [Example 197]
6. Cn1cnc(S(=O)(=O)Nc2cccc([C@@H](c3c(O)c4c(oc3=O)CCCCCC4)C3CC3)c2)c1 [Example 297]
7. O=c1oc2c(c(O)c1C(c1cccc(NS(=O)(=O)c3cc(Cl)c(Cl)s3)c1)C1CC1)CCCCCC2 (stereo not drawn) [Example 302]

44.4%
87.8%
102%
100%
88.7%
99.8%
113%

Please report inhibition at 3.3 µM for every entry that follows.
1. O=c1oc2c(c(O)c1C(c1cccc(NS(=O)(=O)c3cccc(O)c3)c1)C1CC1)CCCCCC2 (stereo not drawn) [Example 405]
2. O=c1oc2c(c(O)c1C(c1cccc(NS(=O)(=O)c3cc(Cl)ccc3Cl)c1)C1CC1)CCCCCC2 (stereo not drawn) [Example 271]
3. CCC1CCCCCc2c1oc(=O)c(C(c1ccccc1)C1CC1)c2O (stereo not drawn) [Example 127]
4. O=C(COCc1ccccc1)Nc1cccc(S(=O)(=O)Nc2cccc(C(c3c(O)c4c(oc3=O)CCCCCC4)C3CC3)c2)c1 (stereo not drawn) [Example 408]

1. 106%
2. 75.3%
3. 115%
4. 98.5%

Please report inhibition at 3.3 µM for every entry that follows.
1. O=c1oc2c(c(O)c1C(c1cccc(NS(=O)(=O)c3ccc(Br)cc3)c1)C1CC1)CCCCCC2 (stereo not drawn) [Example 272]
2. CCCC(c1cccc(NS(=O)(=O)c2ccc(F)cc2)c1)c1c(O)c2c(oc1=O)CCCCCC2 (stereo not drawn) [Example 430]
3. CCC(=O)C1CCCCCc2c1oc(=O)c(C(c1ccccc1)C1CC1)c2O (stereo not drawn) [Example 174]
4. CCC(c1cccc(NC(=O)CCNC(=O)OC(C)(C)C)c1)c1c(O)c2c(oc1=O)CCCCCC2 (stereo not drawn) [Example 219]
5. O=c1oc2c(c(O)c1C(c1cccc(NS(=O)(=O)Cc3ccccc3)c1)C1CC1)CCCCCC2 (stereo not drawn) [Example 321]
6. O=C(NCc1ccc(S(=O)(=O)Nc2cccc(C(c3c(O)c4c(oc3=O)CCCCCC4)C3CC3)c2)s1)c1ccccc1 (stereo not drawn) [Example 296]
7. CCC(c1ccc(C)s1)c1c(O)c2c(oc1=O)CCCCCC2 (stereo not drawn) [Example 381]
8. O=c1oc2c(c(O)c1C(c1ccccc1)C1CC1)CCCCCC2CC1CCCOC1 (stereo not drawn) [Example 179]

96.2%
104%
95.9%
100%
113%
104%
80.4%
87.2%

Please report inhibition at 3.3 µM for every entry that follows.
1. O=c1oc2c(c(O)c1C(c1cccc(NS(=O)(=O)c3ccc(-c4ccccn4)s3)c1)C1CC1)CCCCCC2 (stereo not drawn) [Example 310]
2. O=c1oc2c(c(O)c1C(c1cccc(NS(=O)(=O)c3cccc(NS(=O)(=O)c4ccccc4)c3)c1)C1CC1)CCCCCC2 (stereo not drawn) [Example 350]
3. CCC(c1cccc(NS(=O)(=O)c2ccc(C#N)cc2)c1)c1c(O)c2c(oc1=O)CCCCCC2 (stereo not drawn) [Example 222]
4. COc1ccc(S(=O)(=O)Nc2cccc(C(c3c(O)c4c(oc3=O)CCCCCC4)C3CC3)c2)cc1 (stereo not drawn) [Example 275]
5. O=c1oc2c(c(O)c1C(c1cccc(NS(=O)(=O)c3cccs3)c1)C1CC1)CCCCCC2 (stereo not drawn) [Example 323]

1: 99%; 2: 98.3%; 3: 110%; 4: 131%; 5: 104%

State, in one line, measured inhibition at 3.3 µM of O=c1oc2c(c(O)c1C(c1cccc(NS(=O)(=O)c3cccc(NS(=O)(=O)CCCCl)c3)c1)C1CC1)CCCCCC2 (stereo not drawn) [Example 313] 100%

Origin of measurements: patent US5686486A
